- measurement_target: Androgen Receptor/SRC-1 Co-activator, AR (gene 367)
- protocol_text: OT_AR_ARSRC1_0960: Odyssey Thera (OT) 16-hour HEK293T Protein-Complementation Assay for Androgen Receptor/SRC-1 Co-activator (AID 2283353);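 also: actives raise the signal above DMSO so potency reflects increased AR and SRC-1 complex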
Activity calls are given as the source filed them. The calls were made as follows: active = hit-call score of the fitted dose curve at least 0.9, where 1 is the maximum; inconclusive = response in the unintended direction; inactive = score below 0.9.
Return exactly one item of 1 for active, -1 for inactive

Illustrative cases are given below, each with its answer.
# structure_as_smiles, class_name
rows = [
    ("COc1ccc(S(=O)(=O)N2C(=O)[C@@](c3ccccc3OC)(N3C[C@H](O)C[C@H]3C(=O)N(C)C)c3cc(Cl)ccc32)c(OC)c1", 1),
    ("CCOc1ccc2c(c1)C(C)=CC(C)(C)N2", -1),
    ("Cc1ccc(C)c(C)c1", -1),
]

## Task Field: outcome | Entry: `Cc1ccc(C)c(O)c1C`
## Result -1

## Task Next compound: `CCCCCCCCCCC`
## Result -1

## Task Next compound: `CC(=O)Oc1ccccc1C(=O)O`
## Result -1

## Task Next compound: `COCCOCCOC`
## Result -1

## Task Next compound: `Cc1cc(NC(=O)C(=O)O)cc(C)c1Oc1ccc(O)c2c1CCC2`
## Result -1

###

- Read-out: Cytochrome P450 (CYP2B6), CYP2B6 (gene 1555)
- protocol_text: LTEA_HepaRG_CYP2B6: Life Technologies and Expression Analysis (LTEA) Assay for Cytochrome P450 (CYP2B6) using HepaRG (AID 2283481)
- reported_conditions: mRNA level, 48 h; actives raise or lower the signal
Activity calls are given as the source filed them. How the source made its calls: active means hit-call score of the fitted dose curve at least 0.9, where 1 is the maximum; inactive means score below 0.9.
Return exactly one item of label 1 = active, label 0 = inactive

# compound, class_name
records = [
    ("O=C(N[C@@H](Cc1ccccc1)[C@@H](O)C(=O)N1C[C@@H](O)[C@@H](O)C1)c1cc2cc(Cl)ccc2[nH]1", "label 1"),
    ("CC(=O)OC/C=C(\\C)CCC=C(C)C", "label 0"),
    ("CCCCC(CC)COC(=O)CC(C(=O)OCC(CC)CCCC)S(=O)(=O)O (configuration not stated)", "label 1"),
    ("COCCOC[C@H](CC1(C(=O)NC2CCC(C(=O)O)CC2)CCCC1)C(=O)Oc1ccc2c(c1)CCC2 (some centres not stated)", "label 0"),
    ("Cc1ccc(C)c(O)c1C", "label 0"),
    ("C1CCC(SSC2CCCCC2)CC1", "label 0"),
]

## Task Field: outcome | Entry: `CCCCOC(=O)CCCCCCCCC(=O)OCCCC`
## Result label 0

## Task Next compound: `Cc1ccccc1Cl`
## Result label 0

## Task Next compound: `Cc1oc(-c2ccccc2)nc1CCOc1cccc2c1ccn2CCC(=O)O`
## Result label 1

## Task Next compound: `Oc1ccc2ccccc2c1N=Nc1ccccc1`
## Result label 1

## Task Next compound: `OC[C@@H](O)[C@@H](O)[C@H](O)[C@H](O)CO`
## Result label 0

## Task Next compound: `CC(=O)Oc1ccccc1C(=O)O`
## Result label 0

###

- Read-out: Interleukin 6 Receptor (IL6R), IL6R (gene 3570)
- protocol_text: LTEA_HepaRG_IL6R: Life Technologies and Expression Analysis (LTEA) Assay for Interleukin 6 Receptor (IL6R) using HepaRG (AID 2283510)
- reported_conditions: mRNA level, 48 h; actives raise or lower the signal
Calls of active or inactive are those of the source. How the source made its calls: active means hit-call score of the fitted dose curve at least 0.9, where 1 is the maximum; inactive means score below 0.9.
Return exactly one item of active, inactive

Illustrative cases are given below, each with its answer.
# molecule, class_name
measured = [
    ("Oc1ccc2ccccc2c1N=Nc1ccccc1", "active"),
    ("O=c1c(O)c(-c2ccc(O)c(O)c2)oc2cc(O)cc(O)c12", "inactive"),
    ("OC[C@@H](O)[C@@H](O)[C@H](O)[C@H](O)CO", "inactive"),
    ("COc1ccc(C)cc1N", "inactive"),
    ("C1CCC(SSC2CCCCC2)CC1", "inactive"),
]

## Task Field: outcome | Entry: `COC(=O)c1ccc(O)cc1`
## Result inactive

## Task Next molecule: `CCCCCCCCCCCCCO`
## Result inactive

## Task Next molecule: `Cc1cccc(Nc2cc(Cl)nc(SCC(=O)O)n2)c1C`
## Result inactive

## Task Next molecule: `Clc1cc(Cl)c(Cl)cc1Cl`
## Result inactive

## Task Next molecule: `Cc1nc(C)nc(N2C[C@@H](C)N(c3ccnc([C@@H](C)O)n3)[C@@H](C)C2)n1`
## Result inactive

## Task Next molecule: `CCCCCCCC=O`
## Result inactive

## Task Next molecule: `CCc1c(C(=O)NN2CCCCC2)nn(-c2ccc(Cl)cc2Cl)c1-c1ccc(Br)cc1`
## Result active

## Task Next molecule: `CCCCN(CCCC)CCCC`
## Result inactive

## Task Next molecule: `Cc1ccc2ncccc2c1`
## Result inactive

## Task Next molecule: `O=C(OCCCCCOC(=O)c1ccccc1)c1ccccc1`
## Result active

## Task Next molecule: `CCCCc1ccc2c(n1)[C@@H](c1ccc(OC)cc1C[C@H](C)C(=O)O)[C@H](C(=O)O)[C@H]2c1ccc2c(c1)OCO2`
## Result inactive

## Task Next molecule: `COc1ccc(S(=O)(=O)N2C(=O)[C@@](c3ccccc3OC)(N3C[C@H](O)C[C@H]3C(=O)N(C)C)c3cc(Cl)ccc32)c(OC)c1`
## Result active

###

- measurement_target: human Adenosine A2a Receptor (AdoRA2a), ADORA2A (gene 135) (UniProt P29274)
- Sequence (P29274 whole entry, looked up): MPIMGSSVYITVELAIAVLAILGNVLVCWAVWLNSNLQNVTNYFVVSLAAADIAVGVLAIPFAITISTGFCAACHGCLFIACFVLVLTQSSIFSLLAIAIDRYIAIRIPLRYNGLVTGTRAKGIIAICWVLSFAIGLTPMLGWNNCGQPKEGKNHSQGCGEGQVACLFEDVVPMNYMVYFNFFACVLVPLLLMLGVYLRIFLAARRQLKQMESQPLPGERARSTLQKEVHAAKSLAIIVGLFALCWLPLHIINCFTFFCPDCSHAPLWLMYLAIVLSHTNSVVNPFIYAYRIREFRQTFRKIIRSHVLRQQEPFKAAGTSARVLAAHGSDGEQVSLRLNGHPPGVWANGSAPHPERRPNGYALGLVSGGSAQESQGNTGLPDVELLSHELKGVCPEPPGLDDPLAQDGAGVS
- protocol_text: NVS_GPCR_hAdoRA2a: NovaScreen (NVS) G Protein-Coupled Receptor Assay for human Adenosine A2a Receptor (AdoRA2a) (AID 2283256)
Results filed as inconclusive are left out. Activity calls are given as the source filed them. Rule for the calls: active = hit-call score of the fitted dose curve at least 0.9, where 1 is the maximum; inconclusive = response in the unintended direction; inactive = score below 0.9.
Return exactly one item of True for active, False for inactive

Illustrative cases are given below, each with its answer.
# compound, class_name
records = [
    ("CCCCC(CC)COC(=O)CC(C(=O)OCC(CC)CCCC)S(=O)(=O)O (stereo not given)", "True"),
    ("CCOC(=O)CCC(=O)OCC", "False"),
    ("Nc1ccccc1N", "True"),
    ("O=c1c(O)c(-c2ccc(O)c(O)c2)oc2cc(O)cc(O)c12", "True"),
]

Field: next compound
## Task Field: outcome | Entry: `CCOc1ccc2c(c1)C(C)=CC(C)(C)N2`
## Result False

###

- Read-out: Plasminogen activator inhibitor-1 (PAI1), SERPINE1 (gene 5054)
- protocol_text: BSK_hDFCGF_PAI1: BioMAP Diversity Plus: hDFCGF Assay for Plasminogen activator inhibitor-1 (PAI1) Biomarker Activity (AID 2283066)
- reported_conditions: primary human foreskin fibroblasts; actives raise or lower the signal
Activity calls are given as the source filed them. The calls were made as follows: active = hit-call score of the fitted dose curve at least 0.9, where 1 is the maximum; inactive = score below 0.9.
measure: AC50

# compound, AC50
data = [
    ("CNCc1cc(F)ccc1Oc1ccc(Cl)c(Cl)c1", "inactive"),
    ("Cc1nc(-c2ccc3c(c2)CCN(CCC2CCC(NC(=O)/C=C/c4ccc(F)cc4)CC2)CC3)no1 (centres undefined)", "inactive"),
    ("CC(=O)OC/C=C(\\C)CCC=C(C)C", "inactive"),
    ("CCCCC(CC)COC(=O)CC(C(=O)OCC(CC)CCCC)S(=O)(=O)O (centres undefined)", "9.12 µM (active)"),
    ("O=C(OCCCCCOC(=O)c1ccccc1)c1ccccc1", "inactive"),
    ("CCCCCCCCCCCCCO", "12.9 µM (active)"),
    ("CC(C)(C)c1cc(O)c(C(C)(C)C)cc1O", "inactive"),
    ("CN[C@H]1CC[C@@H](c2ccc(Cl)c(Cl)c2)c2ccc(S(N)(=O)=O)cc21", "23.9 µM (active)"),
    ("CCOC(=O)C(C)(C)Oc1ccc(Cl)cc1", "inactive"),
    ("Clc1cc(Cl)c(Cl)cc1Cl", "inactive"),
]

Look at each compound and report its AC50.
1. Nc1ccc(S(=O)(=O)c2ccc(N)cc2)cc1
2. CC=Cc1ccc(O)c(OC)c1

## Result
inactive
inactive

###

- protocol_text: ACEA_AR_antagonist_AUC_viability: ACEA Biosciences xCELLigence Real-Time Cell Analysis on Androgen Receptor Antagonism for Viability (AID 2283776);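 also: 22Rv1 human prostate cancer cells growing on impedance electrode plates; area under impedance growth curve at 80 h after dosing as viability; hits lower the growth signal relative to DMSO meaning cytotoxicity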
Inconclusive results are not listed. Activity calls are given as the source filed them. The calls were made as follows: active = hit-call score of the fitted dose curve at least 0.9, where 1 is the maximum; inconclusive = response in the unintended direction; inactive = score below 0.9.
measure: AC50

The following compounds have reported results that may help.
# structure_as_smiles, AC50
measured = [
    ("CCCCCCCCCCCC(=O)OC", "inactive"),
    ("NS(=O)(=O)c1cc2c(cc1Cl)NCNS2(=O)=O", "inactive"),
    ("O=c1[nH]cc(F)c(=O)[nH]1", "1.76 µM (active)"),
    ("O=C(O)Cc1ccccc1Nc1c(Cl)cccc1Cl", "50 µM (active)"),
    ("Clc1cc(Cl)c(Cl)cc1Cl", "inactive"),
    ("CC(C)c1ccc(C(=O)N=C(N)N)cc1S(C)(=O)=O", "inactive"),
    ("CC1(C)NC(=O)NC1=O", "inactive"),
    ("COc1ccc2c(c1)c(CC(=O)O)c(C)n2C(=O)c1ccc(Cl)cc1", "25.4 µM (active)"),
]

Turning now to a further compound:
## Task AC50 for `Cc1ccc2ncccc2c1` ?
## Result inactive
